Reference for the values: the supplement of paper PMC9170038

Tested on: MS2 coat protein
Assay: apparent KD of MS2 coat protein; designed switch direction (-1 OFF switch, 1 ON switch): 1; higher = weaker reporter binding
Conditions: input ligand: none
Exercise: for every item that follows, state its recorded apparent KD of MS2 coat protein.
Give bare numbers, in nM.

For orientation, consider the following solved cases.
residues: GGUGGGUUACUACCCACACAUGAGGAUCACCCAUGUAUUGGGAAGGAUAUGGUGCCUGUGUGGUACCAGAAGGUCGUGAAGGUG [SS-NG3-LRO19] (Eterna round: R96, puzzle: Same State NG 3)
apparent KD of MS2 coat protein, nM: 3470

residues: UCGGGCGUACUUGCUGACAUGAGGAUCACCCAUGUCCUUGCGCAGGAUAUGGUUCCGUUUCGGUUCCAGAAGGUCCUGGCUGCU [salish99_SSNG3_r04_319] (Eterna round: R96, puzzle: Same State NG 3)
apparent KD of MS2 coat protein, nM: 33.2

Okay, now this sequence:
Return apparent KD of MS2 coat protein for the following sequence: CCCUGAGGUAGCCCACAGGGACAUGAGGAUCACCCAUGUACACAGGAUAUCGAGGGCUCCGCCUUCGAGAAGGGUGAUCAAACU [Geditedi] (Eterna round: R96, puzzle: Same State NG 3)
53.4

----------
Test system: K4 kissing-loop RNA reporter;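 note: bound reporter read as fluorescence of individual clusters on recovered sequencing chips by microscopy, with normalized cluster intensities fitted with a binding model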
Experiment: apparent KD of K4 kissing-loop reporter; higher = weaker reporter binding
Conditions: Eterna round: R107; input ligand: arginine 13.2 mM
Each entry gets N if its apparent KD of K4 kissing-loop reporter stays under 200 nM, and Y if its apparent KD of K4 kissing-loop reporter is 200 nM or above.

// known answers, use as guide
residues: UGGCCUUAAAUUCUAGGAUUAGCGACGUACAAGGAUAUUCGUCAUCGAAGAAGGUGUAGCUAGGAGAGUGAUGUUUUCCAUCGCC [theeternabot_sameState_KL_FMN_A_15]
label value: Y
--
residues: CGCGUGGGUUUGAGAGGGUUUGCGCGAAGUGAGGAUAUUUAGGGAGAAAGAAGGCACUAUAAAAUAUAGUGAUGUUAUAUAAGGG [SSFMNA.J]
label value: N
--
residues: GAAUUAUGUAGAAGGAGCGUUAGAAGGUAUAGGUGUGAGUGAUGUUCGGAUUUGUUAAUUUGACAGGUAGGUCGCUACAGAAGGA [KL-SSArg B17 #analogue]
label value: Y
--
residues: GGGAGAGCGCGAAGGAGCGCCCUGACAGGUUGCUGCCGUGGGCAGUGAUGUUGCUCAGUCCGGCAGGUAGGUCGCGUGCUCUCCC
label value: N

Now look at this one.
Entry AGAGAUAUAUGAGGAUAUGAGUUAGUUAAUGAGUGAGUUUUAGUGUUGUUUGGUUAGUGAUGUUAUUUAGAAGGCGUGAGUGAUG [ttytmullin] : is its apparent KD of K4 kissing-loop reporter no less than 200 nM?
N

----------
System: MS2 coat protein
Test: apparent KD of MS2 coat protein; designed switch direction (-1 OFF switch, 1 ON switch): -1; higher = weaker reporter binding
Conditions: input ligand: FMN 200 uM
The label depends only on apparent KD of MS2 coat protein: 1 if it is at least 20 nM, 0 if it is smaller.

residues: GUGCAGCGAGGAUAUCCAGACGGGUCCAGUACGUGUCUUGGACUUGAGGAUCACCCAAGUAGAAGGCGUCUCAG [salish99_ex2_r4_611] (Eterna round: R97, puzzle: Exclusion 2)
tested target: MS2 coat protein
label value: 1

Record AUUUAGUGAGGAUAUGGUAACGUUUACAUGAGGAUCACCCAUGUUUCAUGGGACUAGAGACUAGAAGGCACUAACG [JR_Ex5_Sub029] (Eterna round: R97, puzzle: Exclusion 5) ; criterion: apparent KD of MS2 coat protein no lower than 20 nM. Met?
1

Tell me whether apparent KD of MS2 coat protein is at least 20 nM here: GAAUAGUGAGGAUAUACUUGCAGUGUACCUCGGGUGAUCUCACUUGAGGAUCACCCAAGUAGAAGGCGCGAGGG [EX2 #22] (Eterna round: R97, puzzle: Exclusion 2)
1

Could you please find out whether UCGCUCCGUGUAGGAUAUCGUUGUAUUAUGCGGCGAGAAGGACAUGAGGAUCACCCAUGUAUGUUAUUAUCACGCGUGGCGCAA [Design 66] (Eterna round: R96, puzzle: Exclusion NG 1) has apparent KD of MS2 coat protein that meets 20 nM or exceeds it?
0

Has CAGUACUGAGGAUAUACAUGAGGAUCACCCAUGUGAUCUAGUGCACGCGUACGUGUACGUAGAAGGCAGUACUG [JL 3.27 m3] (Eterna round: R97, puzzle: Exclusion 3) a recorded apparent KD of MS2 coat protein greater than or equal to 20 nM?
1

----------
System: MS2 coat protein
Experiment: apparent KD of MS2 coat protein; designed switch direction (-1 OFF switch, 1 ON switch): -1; higher = weaker reporter binding
Settings: input ligand: none
quantity name: apparent KD of MS2 coat protein
Don't forget the unit after the number, please.

residues: GCCUUGGGAGUCAGGAUAUACAAUAAAAUAAUUAAGUAGAAGGGACAUGAGGAUCACCCAUGUACAUUACAUCG [alecazam31] (Eterna round: R97, puzzle: Brourd's mod of Exclusion 4)
apparent KD of MS2 coat protein: 25.7 nM

residues: GCAGGUCAAGGAUAUACAUGAGGAUCACCCAUGUAGAUCAACCAGCGAUAGCUGGAAUGUAGAAGGUGACCUGC [E3/5-C2] (Eterna round: R97, puzzle: Exclusion 3)
apparent KD of MS2 coat protein: 23.7 nM

residues: AAUUAGUGAGGAUAUUUGAACAGUGGCAGUAGCCAGUGCAUGAAGAAGGCACAUGAGGAUCACCCAUGUUAUAA [EX4 #58] (Eterna round: R97, puzzle: Exclusion 4)
apparent KD of MS2 coat protein: 39.8 nM

For each of the sequences below, note its apparent KD of MS2 coat protein.
1. AAAUAGCUAGAGGAUAUUGGAUAGGAUUUACUACGAGAAGGUUAGACAUGAGGAUCACCCAUGUUGUGUUGGGA [EX6 #18] (Eterna round: R97, puzzle: Exclusion 6)
2. UCGCUCCGUGUAGGAUAUCGUUGUAUGAUGCGGCGAGAAGGACAUGAGGAUCACCCAUGUAUGUUAUUAUCACGCGUGGCGCAA [Design 65] (Eterna round: R96, puzzle: Exclusion NG 1)
3. CCUUGUGUUGAGGAUAUGCGCCGGCUCGCUGGCGCAGAAGGCGGCACAUGAGGAUCACCCAUGUCAGUUCGCGU [salish99_ex6_r004_014] (Eterna round: R97, puzzle: Exclusion 6)
4. UAUCGGGACUGAGGAUAUUCGUUCGAACACGAAGAAGAAGGUAGUGUCAGGGACAUGAGGAUCACCCAUGUGAUUUCAGUCCUA [JL ViennaUCT Erinle mod 3] (Eterna round: R96, puzzle: Exclusion NG 1)
5. UGAGUGCUGCGAGGAUAUACAUGAGGAUCACCCAUGUAAUCGUGUGAGGCAAAGCCUCACACGAUGUAGAAGGCGCAGUACUCU [Mat - Exclusion NG 2 - Mod of JL - D23] (Eterna round: R96, puzzle: Exclusion NG 2)

1: 53.4 nM; 2: 20.6 nM; 3: 29.8 nM; 4: 165 nM; 5: 18.2 nM

Dear colleague, could you please provide apparent KD of MS2 coat protein for the sequences listed below?
1. GCGUAGUAUGUAGGAUAUCGGUCAGUUUCUGAUCGAGAAGGACAUGAGGAUCACCCAUGUAAAUUGCCCGCUUUGUGGGUACGC [JL ENG1 3.60] (Eterna round: R96, puzzle: Exclusion NG 1)
2. GAGCCAUCGUGAGAUGGCUAAAUUACAUGAGGAUCACCCAUGUAGGAUAUCGAUUGCUUUGCAGUCGAGAAGGACAUGUUUAAU [JL ENG3 3.99] (Eterna round: R96, puzzle: Exclusion NG 3)
3. GGGCGGGCAGGAUAUACAUGAGGAUCACCCAUGUAUGUCCAAAGACAUACAUUCUUAUGUAGAAGGGCCCGCCC [Ex 4] (Eterna round: R97, puzzle: Exclusion 3)
4. UUCUUCUCUGUUAGGAUAUUCUCCGCAGAUGCCUGGAAGAAGGGACAUGAGGAUCACCCAUGUAGUGUAAGCUA [Eternabot (L2) Solution 58] (Eterna round: R97, puzzle: Brourd's mod of Exclusion 4)
5. CGGUGUAACGUAGGAUAUCAUCGCAACUGACGUUGAGAAGGACGACAUGAGGAUCACCCAUGUGAUUUCUCAAUAUUAUACAUC [Prohibition 85 - Jieux - Exclusion NG 1] (Eterna round: R96, puzzle: Exclusion NG 1)
6. GUGCCGCGAGGAUAUACAGACGGGUCCAUUACGUGUCUCGGACUUGAGGAUCACCCAAGUAGAAGGCGUCUCAG [salish99_ex2_r4_625] (Eterna round: R97, puzzle: Exclusion 2)
7. AGCGCAUGAGGAUAUACAUGAGGAUCACCCAUGUUCCAGUGAGCACUAGUGAGAGUCAGUAGAAGGUAUAGGGC [Cecete] (Eterna round: R97, puzzle: Exclusion 3)
8. CACCGUUACAGAGGAUAUGGCACAUGAGGAUCACCCAUGUAAUAAAUGAGAAUUUCGGAUGUAUUCCAGAAGGCUGUAACCGGC [Ostricism 68 - Jieux - Exclusion NG 2] (Eterna round: R96, puzzle: Exclusion NG 2)

1: 22.5 nM; 2: 32.9 nM; 3: 26.6 nM; 4: 62.8 nM; 5: 19.6 nM; 6: 40.2 nM; 7: 172 nM; 8: 35.6 nM

Give apparent KD of MS2 coat protein for each of the items listed below.
1. AGUGACUUAGGAUAUUGGCAUGAAGACAUGAGGAUCACCCAUGUCCUCGUAGUCAUUCGCCGAGAAGGGAGAGAUU [Eternabot (L2) Solution 50] (Eterna round: R97, puzzle: Exclusion 5)
2. GUCCUGAGCGUUAGGAUAUUCACAGUGGACUACUGGAAGAAGGGACAUGAGGAUCACCCAUGUUCGAUACUGGG [Eternabot (L1) Solution 64] (Eterna round: R97, puzzle: Brourd's mod of Exclusion 4)

84.4 nM
47.2 nM
